# Procedure Summary: Cytotoxicity against C57BL/6 mouse BMDM cells assessed as cell viability at 0.1 uM incubated for 4 hrs by CCK-8 assay relative to control
# Type: toxicity, cell-based
# Setup Conditions: bone marrow-derived macrophages (BMDM cells), read-out: Activity
Here, each record is paired with measured viability at 4 h, 0.1 µM data.
Form entry: enter the amount, then its unit.

Please review the following examples before continuing.
CN1CCN(Cc2ccc(NC(=O)Nc3ccc(-c4cc5ccccc5nc4N)cc3F)cc2C(F)(F)F)CC1
86%
CNc1ccc(-c2ccc(NC(=O)Nc3ccc(CN4CCN(C)CC4)c(C(F)(F)F)c3)c(F)c2)cn1
95.5%
CC(=O)Nc1ccc(-c2ccc(NC(=O)Nc3ccc(CN4CCN(C)CC4)c(C(F)(F)F)c3)c(F)c2)cn1
98.3%
CN1CCN(Cc2ccc(NC(=O)Nc3ccc(-c4ccc(O)nc4)cc3F)cc2C(F)(F)F)CC1
106%
CN1CCN(Cc2ccc(NC(=O)Nc3ccc(-c4ccc(N)nc4)cc3F)cc2C(F)(F)F)CC1
86%
CN1CCN(Cc2ccc(NC(=O)Nc3ccc(-c4ccnc(N)c4)cc3F)cc2C(F)(F)F)CC1
112%

Now turn to the next molecule.
Briefly, viability at 4 h, 0.1 µM measured for CN1CCN(Cc2ccc(NC(=O)Nc3ccc(-c4nccnc4N)cc3F)cc2C(F)(F)F)CC1 : 107%

# credit: ChEMBL document CHEMBL6078689
